Answer each item with its documented Rm.
- protocol.notes: Lipophilic-hydrophilic balance, Rm of the compound using mixture of glycerol, i-BuOH and 1-pentanol plus methanesulfonic acid as solvent system by acidic reversed-phase chromatography
- Format: physicochemical
One number for each entry.

# chem.smiles, Rm
measured = [
    ("CCS(=O)(=O)OCCCNCCCOS(=O)(=O)CC.Cl", -0.47),
]

Batch of 5 molecules: report Rm for each.
1. CCCS(=O)(=O)OCCNCCOS(=O)(=O)CCC.Cl
2. CS(=O)(=O)OCCCNCCCOS(C)(=O)=O.Cl
3. CCCCCS(=O)(=O)OCCNCCOS(=O)(=O)CCCCC.Cl
4. CCS(=O)(=O)OCCCCCCNCCOS(=O)(=O)CC.Cl
5. CCS(=O)(=O)OCCCCCCNCCCOS(=O)(=O)CC.Cl

-0.1
-0.88
0.76
-0.19
-0.05

----------
- System: Mus musculus
- protocol.notes: Acute toxicity in ip dosed C3H/HeJ female X DBA2/J male F1 hybrid mouse allografted with mouse L1210 cells assessed as mortality administered as single dose
- Format: organism-based
- protocol.conditions: in vivo
Classification field: enter Y for LD10 values not below 60 mg/kg, N for values below it.

Worked examples follow.
# chem.smiles, qualitative.label
rows = [
    ("CCCS(=O)(=O)OCCCCCCNCCOS(=O)(=O)CCC.Cl", "Y"),
    ("CS(=O)(=O)OCCNCCOS(C)(=O)=O.Cl", "N"),
]

Quick check, LD10 >= 60 mg/kg? `CCCCS(=O)(=O)OCCNCCOS(=O)(=O)CCCC.Cl`
Y

Quick check, LD10 >= 60 mg/kg? `CCS(=O)(=O)OCCCCCCNCCOS(=O)(=O)CC.Cl`
Y

Quick check, LD10 >= 60 mg/kg? `CCS(=O)(=O)OCCNCCOS(=O)(=O)CC.Cl`
N

Quick check, LD10 >= 60 mg/kg? `CCCS(=O)(=O)OCCNCCOS(=O)(=O)CCC.Cl`
Y

Quick check, LD10 >= 60 mg/kg? `CCCCCS(=O)(=O)OCCNCCOS(=O)(=O)CCCCC.Cl`
Y

Quick check, LD10 >= 60 mg/kg? `CCCS(=O)(=O)OCCCNCCCOS(=O)(=O)CCC.Cl`
Y
